Source listed as patent US10189836B2.

Entries and their measured pKi follow.
# system: isolated recombinant JAK1 kinase domain (Homo sapiens (Human))
# Sequence (P23458 875-1153): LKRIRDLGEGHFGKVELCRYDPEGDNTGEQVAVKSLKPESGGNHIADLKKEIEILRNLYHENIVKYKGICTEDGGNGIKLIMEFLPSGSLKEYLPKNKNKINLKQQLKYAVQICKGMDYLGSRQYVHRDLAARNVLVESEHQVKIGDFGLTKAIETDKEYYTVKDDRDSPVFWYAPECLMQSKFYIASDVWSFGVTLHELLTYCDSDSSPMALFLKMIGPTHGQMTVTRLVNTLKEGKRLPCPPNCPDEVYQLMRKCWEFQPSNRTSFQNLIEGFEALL
# assay details: JAK1 enzyme assay (Caliper LabChip, Ki)
# Type: biochemical
# protocol conditions: isolated recombinant JAK1 kinase domain, 1.5 nM enzyme, ATP 25 μM
Please treat pKi as minus the base-10 logarithm of the molar concentration.

compound | pKi
CN1CCN(C(=O)Cn2cc(Nc3nc4c(N5CC6CCC(C5)N6S(=O)(=O)c5ccccc5F)cccn4n3)cn2)CC1 [Example 150] | 9.15
CN1CCN(C(=O)Cn2cc(Nc3nc4c(N5CC6CCC(C5)N6C(=O)CCC(F)(F)F)cccn4n3)cn2)CC1 [Example 5] | 9.22
CN1CCN(C(=O)Cn2cc(Nc3nc4c(N5C[C@H]6CC[C@@H](C5)[C@H]6OCc5cnn(C)c5)cccn4n3)cn2)CC1 [Example 95] | 8.64
CN1CCN(C(=O)Cn2cc(Nc3nc4c(N5CC6CCC(C5)N6S(=O)(=O)CCCC#N)cccn4n3)cn2)CC1 [Example 176] | 9.15
CN1CCN(C(=O)Cn2cc(Nc3nc4c(N5CC6CCC(C5)N6C(=O)c5cnc(CC(F)(F)F)s5)cccn4n3)cn2)CC1 [Example 196] | 9.22
CN1CCN(C(=O)Cn2cc(Nc3nc4c(N5CC6CCC(C5)N6C(=O)c5ccccc5Cl)cccn4n3)cn2)CC1 [Example 114] | 8.77

Notebook: CN1CCN(C(=O)Cn2cc(Nc3nc4c(N5CC6CCC(C5)N6C(=O)C5CCSC5)cccn4n3)cn2)CC1 (centres unmarked) [Example 50] , pKi read as 8.92

Notebook: CN1CCN(C(=O)Cn2cc(Nc3nc4c(N5C[C@H]6CC[C@@H](C5)[C@H]6OCc5ccccc5C#N)cccn4n3)cn2)CC1 [Example 142] , pKi read as 9.15

Notebook: CN1CCN(C(=O)Cn2cc(Nc3nc4c(N5CC6CCC(C5)N6S(=O)(=O)c5ccccc5C#N)cccn4n3)cn2)CC1 [Example 147] , pKi read as 9.40

Notebook: CN1CCN(C(=O)Cn2cc(Nc3nc4c(N5CC6CCC(C5)N6C(=O)COC(F)(F)F)cccn4n3)cn2)CC1 [Example 54] , pKi read as 8.80

Notebook: CCc1cnn([C@@]2(CC#N)[C@@H]3CC[C@H]2CN(c2cccn4nc(Nc5cnn(CC(=O)N6CCN(C)CC6)c5)nc24)C3)c1 [Example 117] , pKi read as 7.74
